Below, each entry is listed with its recorded kon.
studyTarget: T1, CD137-hisFc fusion protein (Sino Biological Cat 10041-H03H) (human, UniProt Q07011 24-186)
T1 construct: Bought; also called recombinant human CD137 (fused with human Fc and His tag); not shown: His tag and human Fc
assayProtocol: BLI Octet, Fab
Answer format: numeric, M⁻¹ s⁻¹ implied, no suffix.

Reported kon for Fab 4074 (Fab, V domains shown, Fab from E. coli) VH: EVQLVESGGGLVQPGGSLRLSCAASGFSLSTGGVGVSWIRQAPGKGLEWVSSISGSGGTTYYADSVKGRFTISRDNSKNTLYLQLNSLRAEDTAVYYCARDDLYSWYFDVWGQGTLVTVSS VL: DIQLTQSPSSLSASVGDRVTITCRASQGIGSSLAWYQQKPGKAPKLLIYAASSLQSGVPSRFSGSGSGTDFTLTISSLQPEDFATYYCQQGYYTWTFGQGTKVEIKR : what is it?
48000

// kon lookup, key: Fab 7120 (Fab, V domains shown, Fab from E. coli; also called VH53/VL53) VH: EVQLVESGGGLVQPGGSLRLSCAASGFSLSTSGVGVGWIRQAPGKGLEWVSYISGDGDTTYYADSVKGRFTISRDNSKNTLYLQLNSLRAEDTAVYYCAREGSTTVLGDWFAYWGQGTLVTVSS VL: DIQLTQSPSSLSASVGDRVTITCRASQGISSYLAWYQQKPGKAPKLLIYDASNLETGVPSRFSGSGSGTDFTLTISSLQPEDFATYYCQQYYSTPLTFGQGTKVEIKR
264000

I'd like to know its kon. The binder in question is Fab 5316 (Fab, V domains shown, Fab from E. coli; also called VH17/VL17) VH: EVQLVESGGGLVQPGGSLRLSCAASGYSISSGYHWAWIRQAPGKGLEWVSSISGDGSSTYYADSVKGRFTISRDNSKNTLYLQLNSLRAEDTAVYYCAREGSDAVTGDWFAYWGQGTLVTVSS VL: DIQLTQSPSSLSASVGDRVTITCRASQGVGTYLAWYQQKPGKAPKLLIYDASSLESGVPSRFSGSGSGTDFTLTISSLQPEDFATYYCQQGYSLWTFGQGTKVEIKR
141000
